# System: CYP3A
# assay-text: CYP3A-mediated midazolam 1′hydroxylation kinetics in HLM suspensions vs HLM-beads
# applied-conditions: human, pH 7.4
recorded-endpoint: microsomal CLint (µL/min/mg)
Lab book: enter the figure in µL/min/mg, no units written.

Dear colleague, I am looking for the recorded microsomal CLint of the following compound: Cc1ncc2n1-c1ccc(Cl)cc1C(c1ccccc1F)=NC2 [Midazolam, midazolam] 2130

###

# target-desc: UGT2B7 (Homo sapiens, UniProt P16662)
# Sequence (P16662 24-529): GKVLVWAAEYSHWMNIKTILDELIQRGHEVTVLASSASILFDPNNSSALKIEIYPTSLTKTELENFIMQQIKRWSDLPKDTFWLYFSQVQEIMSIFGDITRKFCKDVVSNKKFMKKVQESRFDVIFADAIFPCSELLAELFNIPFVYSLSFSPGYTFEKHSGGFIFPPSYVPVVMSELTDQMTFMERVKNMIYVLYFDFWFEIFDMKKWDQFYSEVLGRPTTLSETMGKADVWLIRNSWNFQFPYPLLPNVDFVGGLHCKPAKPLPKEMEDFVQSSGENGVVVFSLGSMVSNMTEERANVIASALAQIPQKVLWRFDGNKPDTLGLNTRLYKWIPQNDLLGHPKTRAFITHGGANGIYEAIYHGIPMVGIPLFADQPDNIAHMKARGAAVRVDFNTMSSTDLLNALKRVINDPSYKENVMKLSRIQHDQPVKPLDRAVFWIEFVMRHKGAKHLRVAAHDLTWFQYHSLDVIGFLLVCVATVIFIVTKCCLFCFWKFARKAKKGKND
# assay-text: in vitro
# applied-conditions: pH 7.8, Km, HLM-beads, Michaelis-Menten modeling
recorded-endpoint: Km (µM)
The figure you give is taken to be in µM; do not add the unit.

For the molecule shown here, Cc1cn([C@H]2C[C@H](N=[N+]=[N-])[C@@H](CO)O2)c(=O)[nH]c1=O , give the reported Km. 490

###

# target-desc: UGT1A1 (Homo sapiens)
# Sequence (P22309 26-533): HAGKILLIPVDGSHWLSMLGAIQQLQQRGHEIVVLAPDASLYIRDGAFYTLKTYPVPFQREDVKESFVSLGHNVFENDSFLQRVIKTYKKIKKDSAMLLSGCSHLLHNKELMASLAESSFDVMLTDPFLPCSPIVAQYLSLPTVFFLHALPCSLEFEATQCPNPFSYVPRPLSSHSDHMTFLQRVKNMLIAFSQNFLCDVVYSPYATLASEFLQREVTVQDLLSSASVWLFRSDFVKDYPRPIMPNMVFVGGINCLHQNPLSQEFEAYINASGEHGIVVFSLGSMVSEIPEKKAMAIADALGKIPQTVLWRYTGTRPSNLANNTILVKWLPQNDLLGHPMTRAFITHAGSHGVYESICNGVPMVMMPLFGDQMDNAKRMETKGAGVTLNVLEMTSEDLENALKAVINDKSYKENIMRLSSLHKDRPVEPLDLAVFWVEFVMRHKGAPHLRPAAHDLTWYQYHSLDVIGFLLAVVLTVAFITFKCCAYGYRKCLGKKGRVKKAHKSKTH
# assay-text: in vitro
# applied-conditions: pH 7.8
recorded-endpoint: microsomal CLint

So what does the record say about microsomal CLint for C[C@]12CC[C@@H]3c4ccc(O)cc4CC[C@H]3[C@@H]1CC[C@@H]2O [E2, estradiol] ? 88 µL/min/mg

###

# assay-text: Microsomal binding (fu,mic) using HLM-beads
# applied-conditions: HLM-beads; HLM 0.50 mg/ml; compound 1.0 μM; (SD)
Marks after values point to notes of the source that are not given here.
fu,mic for assorted molecules

Solved cases (3 shown):
O=C(O)Cc1ccccc1Nc1c(Cl)cccc1Cl [Diclofenac, diclofenac] : 0.92 (0.03)^a
CN(C)CCCN1c2ccccc2Sc2ccc(Cl)cc21 [Chlorpromazine, chlorpromazine] : 0.11 (0.02)
Cc1nnc2n1-c1ccc(Cl)cc1C(c1ccccc1)=NC2 [Alprazolam] : 0.78 (0.06)

Turning now to a further molecule:
Could you share which fu,mic value was measured for CCC(C)n1ncn(-c2ccc(N3CCN(c4ccc(OCC5COC(Cn6cncn6)(c6ccc(Cl)cc6Cl)O5)cc4)CC3)cc2)c1=O (stereo not shown) [Itraconazole, itraconazole] ? 0.10 (0.01)

###

# target-desc: UniProt:P16662
# assay-text: in vitro
# applied-conditions: pH 7.8
recorded-endpoint: microsomal CLint (µL/min/mg)
Enter your answer as a number in µL/min/mg; do not include the unit.

What does the record list as microsomal CLint for Cc1cn([C@H]2C[C@H](N=[N+]=[N-])[C@@H](CO)O2)c(=O)[nH]c1=O [AZT, zidovudine] ? 2.8

###

Items are presented alongside their recorded fraction unbound at 5 min, 1 μM.
# assay-text: in vitro
# applied-conditions: human
The response must contain the number and no unit.

Consider the compound shown here: COc1ccc([C@@H]2Sc3ccccc3N(CCN(C)C)C(=O)[C@@H]2OC(C)=O)cc1 [Diltiazem, diltiazem] What is its recorded fraction unbound at 5 min, 1 μM? 0.99

Name the recorded fraction unbound at 5 min, 1 μM for O=C(O)Cc1ccccc1Nc1c(Cl)cccc1Cl [Diclofenac, diclofenac] . 0.94

###

# assay-text: in vitro
# applied-conditions: human, microsomes
recorded-endpoint: fraction unbound at 6 h, 1 μM

// returns reported fraction unbound at 6 h, 1 μM for input COc1ccc([C@@H]2Sc3ccccc3N(CCN(C)C)C(=O)[C@@H]2OC(C)=O)cc1 [Diltiazem, diltiazem] 0.96

Data request, read-out fraction unbound at 6 h, 1 μM, for CN(C)CCCN1c2ccccc2CCc2ccccc21 [Imipramine, imipramine] 0.4

Please look up its fraction unbound at 6 h, 1 μM: O=C(O)Cc1ccccc1Nc1c(Cl)cccc1Cl [Diclofenac, diclofenac] 0.98

Please report the recorded fraction unbound at 6 h, 1 μM for CC(=O)CC(c1ccccc1)c1c(O)c2ccccc2oc1=O (stereo not drawn) [Warfarin, warfarin] . 0.94

What value of fraction unbound at 6 h, 1 μM has been reported for the following compound? Cc1nnc2n1-c1ccc(Cl)cc1C(c1ccccc1)=NC2 [Alprazolam] 0.98

So what does the record say about fraction unbound at 6 h, 1 μM for Cc1ncc2n1-c1ccc(Cl)cc1C(c1ccccc1F)=NC2 [Midazolam, midazolam] ? 0.98

// provenance: patent US20210223237A1
